src = patent US3996360A

- METHOD SUMMARY: Inotropic effect: contractile force of the heart muscle (left auricle)
- Set-up: species or system guinea pig
- ASSAY CONTEXT: guinea pig, left auricle, Table 1; ratio inotropic ED25 / antiarrhythmic ED25; read-out: Therapeutic Breadth (III/II)
MEASUREMENT NAME: selectivity ratio
Numbers only.

MOLECULE	ENDPOINT VALUE
COc1ccc(CC2(C)CN(C(c3ccccc3)c3ccccc3)CCN2C)cc1OC (centres unmarked)	1.5

Ask: Find the measured selectivity ratio of c1ccc(CN(CC2=NCCN2)c2ccccc2)cc1 [Antazoline, reference compound] and report it.
Result: 0.6
